test: self-splicing fitness, log relative to wild type (ln ratio); higher = more splicing; Tetrahymena group I intron in knt gene, E. coli kanamycin selection, DiMSum; sequences stand for … in CUCUCU…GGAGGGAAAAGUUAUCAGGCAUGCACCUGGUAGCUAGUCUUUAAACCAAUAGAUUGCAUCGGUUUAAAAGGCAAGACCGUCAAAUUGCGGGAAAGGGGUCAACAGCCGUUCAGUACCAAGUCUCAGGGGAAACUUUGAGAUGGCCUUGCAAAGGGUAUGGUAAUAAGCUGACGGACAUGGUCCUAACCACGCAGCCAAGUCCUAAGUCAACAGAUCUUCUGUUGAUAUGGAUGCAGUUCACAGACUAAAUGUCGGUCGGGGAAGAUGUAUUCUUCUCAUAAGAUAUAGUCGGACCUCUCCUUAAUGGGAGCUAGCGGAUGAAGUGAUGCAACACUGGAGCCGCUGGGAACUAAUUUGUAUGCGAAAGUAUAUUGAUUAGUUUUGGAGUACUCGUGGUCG; conditions: 37 °C;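 further: selection with 25 µg/mL kanamycin versus none on LB agar overnight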
Please note: true applies when self-splicing fitness (ln) is -2 or greater, and false applies otherwise.

{"seq-text": "GAGCAGCAAUAUUACGUUUG", "label-value": "true"}
{"seq-text": "UUGCAGCAAUAUUACGUAAC", "label-value": "false"}
{"seq-text": "UCUCAGCAAUAUUACGAGGA", "label-value": "true"}
{"seq-text": "ACGGAGCAAUAUUACGGAAG", "label-value": "true"}
{"seq-text": "GAGCAGCAAUAUUACGGGUG", "label-value": "false"}
{"seq-text": "UAACAGCAAUAUUACGCCAU", "label-value": "false"}
{"seq-text": "CUGUAGCAAUAUUACGCAUG", "label-value": "true"}
{"seq-text": "UCUUAGCAAUAUUACGAAGU", "label-value": "true"}
{"seq-text": "GGUAAGCAAUAUUACGAUUG", "label-value": "false"}
{"seq-text": "GGGCAGCAAUAUUACGGAUC", "label-value": "true"}
{"seq-text": "UCAAAGCAAUAUUACGGGGA", "label-value": "true"}
{"seq-text": "GGGGAGCAAUAUUACGACCA", "label-value": "true"}
{"seq-text": "UAUGAGCAAUAUUACGAGCA", "label-value": "false"}
{"seq-text": "GUCUAGCAAUAUUACGGAUU", "label-value": "true"}
{"seq-text": "AUCCAGCAAUAUUACGGGAG", "label-value": "true"}
{"seq-text": "ACGUAGCAAUAUUACGGAGA", "label-value": "false"}
{"seq-text": "AGCGAGCAAUAUUACGUUGA", "label-value": "false"}
{"seq-text": "CGUGAGCAAUAUUACGGUAC", "label-value": "true"}
{"seq-text": "AAUGAGCAAUAUUACGUCAU", "label-value": "true"}
{"seq-text": "UUCAAGCAAUAUUACGAAGG", "label-value": "false"}
{"seq-text": "UUGCAGCAAUAUUACGUCUU", "label-value": "true"}
{"seq-text": "GGGCAGCAAUAUUACGCUUA", "label-value": "true"}
{"seq-text": "UCGAAGCAAUAUUACGCUGA", "label-value": "false"}
{"seq-text": "GAACAGCAAUAUUACGCAGG", "label-value": "false"}
{"seq-text": "GGUUAGCAAUAUUACGGUAU", "label-value": "true"}
{"seq-text": "GUCAAGCAAUAUUACGACUU", "label-value": "true"}
{"seq-text": "GACAAGCAAUAUUACGCAAG", "label-value": "true"}
{"seq-text": "AACCAGCAAUAUUACGAAGA", "label-value": "true"}
{"seq-text": "UGCUAGCAAUAUUACGAGCA", "label-value": "false"}
{"seq-text": "GGUGAGCAAUAUUACGCGAA", "label-value": "true"}
{"seq-text": "UACGAGCAAUAUUACGACGG", "label-value": "true"}
{"seq-text": "AUAAAGCAAUAUUACGGCUG", "label-value": "true"}
{"seq-text": "AACCAGCAAUAUUACGCACU", "label-value": "true"}

Cited source for all entries: the supplement of paper PMC7877785
